Biological target: MMP-2 (Homo sapiens, UniProt P08253)
Construct: purchased SIGMA PF023
Sequence (P08253 110-660): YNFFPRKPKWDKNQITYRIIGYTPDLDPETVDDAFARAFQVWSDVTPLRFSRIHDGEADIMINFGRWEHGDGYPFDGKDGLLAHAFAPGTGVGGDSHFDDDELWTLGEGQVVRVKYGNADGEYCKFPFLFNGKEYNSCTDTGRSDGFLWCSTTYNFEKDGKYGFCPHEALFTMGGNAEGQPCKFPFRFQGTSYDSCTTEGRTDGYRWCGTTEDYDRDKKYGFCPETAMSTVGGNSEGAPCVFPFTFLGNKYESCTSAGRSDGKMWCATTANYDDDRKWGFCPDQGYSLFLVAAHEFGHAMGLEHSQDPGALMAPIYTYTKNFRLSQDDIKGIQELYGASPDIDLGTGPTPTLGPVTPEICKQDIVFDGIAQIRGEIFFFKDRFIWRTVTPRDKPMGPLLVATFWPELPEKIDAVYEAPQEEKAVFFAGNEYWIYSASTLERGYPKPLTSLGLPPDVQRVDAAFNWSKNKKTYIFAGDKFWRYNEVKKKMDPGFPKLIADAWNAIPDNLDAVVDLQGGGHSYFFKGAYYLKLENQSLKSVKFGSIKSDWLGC
Assay: FRET peptide cleavage efficiency with MMP-2
Type: biochemical
Details: t = 15 min (Table 9)
Square brackets hold non-standard residues; d marks the D form. Ends that are not written are not given here. Tyr(3-NO2) = N[C@@H](Cc1ccc(O)c([N+](=O)[O-])c1)C(=O)O; Nle = CCCC[C@H](N)C(=O)O; 2Abz = Nc1ccccc1C(=O)O
READOUT TYPE: % cleavage MMP-2 t = 15 min (%)
One number for each entry, in %.

Before answering, review these 8 worked examples.
query: Look up % cleavage MMP-2 t = 15 min: SGRVAPYMLQG ([2Abz]SGRVAPYMLQG[Tyr(3-NO2)]-NH2) [LNK042]
result: 49

query: Now the substance RGRRVANPLGLAGSG ([2Abz]RGRRVANPLGLAGSG[Tyr(3-NO2)]-NH2) [LNK050]
result: 54

query: Now the substance SGRVANLVG (not fully specified (N-terminus, C-terminus)) [LNK017]
result: 89

query: Now the substance RGRKSPQPLVD ([2Abz]RGRKSPQPLVD[Tyr(3-NO2)]-NH2) [LNK040]
result: 8

query: Now the substance RGRRHSSKLQPLGYFGKL ([2Abz]RGRRHSSKLQPLGYFGKL[Tyr(3-NO2)]-NH2) [LNK062]
result: 71

query: Now the substance RSSYRSL ([2Abz]RSSYRSL[Tyr(3-NO2)]-NH2) [LNK075]
result: 16

query: Now the substance RQRKVANLVG ([2Abz]RQRKVANLVG[Tyr(3-NO2)]-NH2) [LNK032]
result: 81

query: Now the substance SSRGRRGPYMLQG ([2Abz]SSRGRRGPYMLQG[Tyr(3-NO2)]-NH2) [LNK021]
result: 20

State the recorded % cleavage MMP-2 t = 15 min for every item in the following list.
1. SGRVLRKAGPQPLVD ([2Abz]SGRVLRKAGPQPLVD[Tyr(3-NO2)]-NH2) [LNK003]
2. SGRVLRKAGPANLVG ([2Abz]SGRVLRKAGPANLVG[Tyr(3-NO2)]-NH2) [LNK014]
3. RGRRPLGLAG ([2Abz]RGRRPLGLAG[Tyr(3-NO2)]-NH2) [LNK049]
4. RGRKSPANLVG ([2Abz]RGRKSPANLVG[Tyr(3-NO2)]-NH2) [LNK034]

result:
1: 7; 2: 91; 3: 89; 4: 92

State the recorded % cleavage MMP-2 t = 15 min for every item in the following list.
1. RGRRPLGLAGGSG ([2Abz]RGRRPLGLAGGSG[Tyr(3-NO2)]-NH2) [LNK051]
2. SGRHSSKLQPLGYFGKL ([2Abz]SGRHSSKLQPLGYFGKL[Tyr(3-NO2)]-NH2) [LNK063]
3. SGRVANYFGKL ([2Abz]SGRVANYFGKL[Tyr(3-NO2)]-NH2) [LNK054]

result:
1: 73; 2: 82; 3: 78

State the recorded % cleavage MMP-2 t = 15 min for every item in the following list.
1. RGRKPY-Nle-LQG ([2Abz]RGRKPY[Nle]LQG[Tyr(3-NO2)]-NH2) [LNK036]
2. SGRVAPY-Nle-LQG ([2Abz]SGRVAPY[Nle]LQG[Tyr(3-NO2)]-NH2) [LNK043]
3. RGRKVANLVG ([2Abz]RGRKVANLVG[Tyr(3-NO2)]-NH2) [LNK031]

result:
1: 27; 2: 34; 3: 77

All figures here come from patent US20240400614A1.
